- assay procedure: Ratio of drug level in tumor to blood in mouse
- Format: ADME, organism-based

>  <query smiles>
CCN(CC)CCNC(=O)c1ccc(C(=O)N[C@@H](CC(C)C)C(=O)N[C@@H](CC(C)C)C(=O)N[C@H](C=O)CC(C)C)c([125I])c1

>  <Kp>
≥ 1

$$$$

----------
- assay procedure: Cytotoxicity against human IPC227F cells after 48 hrs using Hoechst 33342 dye-based fluorescence microplate reader
- Type: functional, cell-based
pIC50: −log10 of the molar value. Peptide text beside a SMILES is read from it. * marks the point of attachment. Cbz = O=C(OCc1ccccc1)*
Would you mind labelling by pIC50? At or over 5 is condition met, under is condition not met.

>  <compound>
CCCN(CCC)CCNC(=O)c1ccc(C(=O)N[C@@H](CC(C)C)C(=O)N[C@@H](CC(C)C)C(=O)N[C@H](C=O)CC(C)C)cc1

>  <assigned class>
condition met

$$$$
>  <compound>
CCN(CC)CCNC(=O)c1ccc(C(=O)N[C@@H](Cc2ccccc2)C(=O)N[C@@H](CC(C)C)C(=O)N[C@H](/C=C/S(C)(=O)=O)CC(C)C)cc1

>  <assigned class>
condition not met

$$$$
>  <compound>
CCN(CC)CCNC(=O)c1ccc(C(=O)N[C@@H](CC(C)C)C(=O)N[C@@H](CC(C)C)C(=O)N[C@H](/C=C/S(C)(=O)=O)CC(C)C)cc1

>  <assigned class>
condition not met

$$$$
>  <compound>
CC(C)C[C@@H](C=O)NC(=O)[C@H](CC(C)C)NC(=O)[C@H](CC(C)C)NC(=O)OCc1ccccc1 [MG-132] (Cbz-Leu-Leu-Leu-aldehyde)

>  <assigned class>
condition met

$$$$
>  <compound>
CCCN(CCC)CCCCNC(=O)c1ccc(C(=O)N[C@@H](CC(C)C)C(=O)N[C@@H](CC(C)C)C(=O)N[C@H](C=O)CC(C)C)cc1

>  <assigned class>
condition met

$$$$

----------
This section presents compounds with their documented IC50 values.
- assay procedure: Cytotoxicity against human IPC227F cells after 48 hrs using Hoechst 33342 dye-based fluorescence microplate reader
- Format: functional, cell-based

>  <query smiles>
CCN(CC)CCNC(=O)c1ccc(C(=O)N[C@@H](CC(C)C)C(=O)N[C@@H](CC(C)C)C(=O)N[C@H](C=O)CC(C)C)cc1

>  <result unit>
µM

>  <IC50>
0.64

$$$$
>  <query smiles>
CCN(CC)CCNC(=O)c1ccc(C(=O)N[C@@H](Cc2ccccc2)C(=O)N[C@H](/C=C/S(C)(=O)=O)CC(C)C)cc1

>  <result unit>
µM

>  <IC50>
94.5

$$$$
>  <query smiles>
CCN(CC)CCNC(=O)c1ccc(C(=O)N[C@@H](Cc2ccccc2)C(=O)N[C@H](C=O)CC(C)C)cc1

>  <result unit>
µM

>  <IC50>
20.9

$$$$

These entries and their values trace back to ChEMBL document CHEMBL1909632.
